# Tested on: OVCAR-4 ovarian
# PROCEDURE TEXT: NCI tumour cell line growth inhibition, 48 h
QUANTITY KIND: GI50

Prompt: Value lookup for GI50; key = COc1cc(/C=C/C(=O)c2ccc(NC(=O)CN3C(=O)NC(C)(c4ccccc4)C3=O)cc2)cc(OC)c1OC (centres undefined)
Completion: 13.4 µM

###

# Test system: NCI-H522 lung
# PROCEDURE TEXT: NCI tumour cell line growth inhibition, 48 h; in the data active means GI50 below about 0.43 µM; inactive means the rest
Write down one outcome, taken from active, inactive

Sample answers from the record:
COMPOUND: N/C(=N\c1nc2ccccc2s1)NC(=O)Nc1ccccc1[N+](=O)[O-]
LABEL CLASS: active

COMPOUND: COc1cc(/C=C/C(=O)c2ccc(NC(=O)CN3C(=O)NC(C)(c4ccccc4)C3=O)cc2)cc(OC)c1OC (centres undefined)
LABEL CLASS: inactive

COMPOUND: COc1ccc(C(=O)/C=C/c2ccc(OCc3ccc(F)cc3)c(OC)c2)cc1OC
LABEL CLASS: inactive

Prompt: Could you please tell me the result logged for Cn1cc(-c2cc(N)n3nc(-c4c[nH]c5ccccc45)cc3n2)c2cc(F)ccc21 in this assay?
Completion: inactive
